Measured aptazyme ON/OFF ratio of individual entries
B1: Pistol ribozyme (parent)
chain: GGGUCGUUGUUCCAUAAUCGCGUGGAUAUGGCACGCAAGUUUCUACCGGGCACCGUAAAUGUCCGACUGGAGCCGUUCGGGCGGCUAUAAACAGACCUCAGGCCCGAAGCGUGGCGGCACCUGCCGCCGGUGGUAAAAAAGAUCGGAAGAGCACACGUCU

Variants of: B1
Assay: aptazyme ON/OFF ratio, guanine; higher = stronger switching; co-transcriptional cleavage with and without guanine

{"mutation spec": "U7A G9C U11G C12G", "aptazyme ON/OFF ratio": 1.36}
{"mutation spec": "U8G U10G U11C C12A", "aptazyme ON/OFF ratio": 1.06}
{"mutation spec": "U8G G9U U10C U11G C12A C13A", "aptazyme ON/OFF ratio": 1.14}
{"mutation spec": "U7C U8C G9A U10G U11A", "aptazyme ON/OFF ratio": 1.16}
{"mutation spec": "G9U U10C U11A C12U C13U", "aptazyme ON/OFF ratio": 1.54}
{"mutation spec": "U7G U8C U11G C12G C13U", "aptazyme ON/OFF ratio": 1.12}
{"mutation spec": "U7C U8A U10A U11G C12G", "aptazyme ON/OFF ratio": 1.19}
{"mutation spec": "U7C G9C C12U", "aptazyme ON/OFF ratio": 1.03}
{"mutation spec": "U8A G9A U10C U11G C12G C13G", "aptazyme ON/OFF ratio": 1.24}
{"mutation spec": "U7C U8G G9U U11G C12U C13A", "aptazyme ON/OFF ratio": 1.32}
{"mutation spec": "U7A U8C G9C U11A C12U C13G", "aptazyme ON/OFF ratio": 1.04}
{"mutation spec": "U7C U8G G9C U11C C12A C13G", "aptazyme ON/OFF ratio": 1.09}
{"mutation spec": "U7A U8G U10C U11A C12G", "aptazyme ON/OFF ratio": 1.48}
{"mutation spec": "U7G U8C G9C U10C U11C C12A C13G", "aptazyme ON/OFF ratio": 1.21}
{"mutation spec": "U7A U8C G9C U11G C12U", "aptazyme ON/OFF ratio": 1.28}
{"mutation spec": "U8A G9A U10A C12A", "aptazyme ON/OFF ratio": 1.43}
{"mutation spec": "U7G U8A G9A U11G C12A", "aptazyme ON/OFF ratio": 1.08}
{"mutation spec": "U7C U8A G9U U10A C12G C13G", "aptazyme ON/OFF ratio": 1.17}
{"mutation spec": "U7G U8G G9C U10C U11G C12G C13A", "aptazyme ON/OFF ratio": 1.19}
{"mutation spec": "U7A G9A C12A C13A", "aptazyme ON/OFF ratio": 1.13}
{"mutation spec": "G9U U10G U11G C12G C13U", "aptazyme ON/OFF ratio": 1.27}
{"mutation spec": "U7G U8A G9A U11G C13A", "aptazyme ON/OFF ratio": 1.13}
